# credit: patent US10689378B2

target: EED (1-441)-His protein (Homo sapiens); construct: 30 nM EED (1-441)-His protein; test: EED-H3K27Me3 peptide competition binding assay by AlphaScreen; conditions: EED-H3K27Me3 peptide competition, AlphaScreen; read-out: (a) IC50 EED Alphascreen binding Qualified
Sequence (O75530 whole entry): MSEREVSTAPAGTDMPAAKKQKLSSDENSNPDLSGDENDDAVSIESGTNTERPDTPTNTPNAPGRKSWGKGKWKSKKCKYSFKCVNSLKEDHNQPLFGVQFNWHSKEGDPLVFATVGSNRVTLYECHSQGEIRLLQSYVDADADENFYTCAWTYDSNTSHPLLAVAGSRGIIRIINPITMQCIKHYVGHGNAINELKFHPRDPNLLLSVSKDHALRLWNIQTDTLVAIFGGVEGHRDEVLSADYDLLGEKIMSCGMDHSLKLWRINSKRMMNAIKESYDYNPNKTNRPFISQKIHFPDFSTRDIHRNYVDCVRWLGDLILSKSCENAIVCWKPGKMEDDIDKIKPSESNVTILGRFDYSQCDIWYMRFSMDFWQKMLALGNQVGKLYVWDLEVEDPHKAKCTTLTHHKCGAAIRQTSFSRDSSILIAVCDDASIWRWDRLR
Response field label: string, one of Yes (IC50 strictly below 40 nM) or No.

**Query** A record lists COc1cc(F)cc(F)c1CNc1ccc(-c2ccc(S(C)(=O)=O)cc2)c2nncn12 [Example 235] . Is its IC50 below 40 nM?
**Result** No

**Query** A record lists COc1cccc(F)c1CNc1ccc(-c2ccnn2C2CC2)c2nncn12 [Example 292] . Is its IC50 below 40 nM?
**Result** Yes

**Query** A record lists COc1cccc(F)c1CNc1ccc(-c2cnc(N3CCOCC3)cc2C)c2nncn12 [Example 262] . Is its IC50 below 40 nM?
**Result** Yes

**Query** A record lists COc1cccc(F)c1CNc1ccc(-c2cccnc2C#N)c2nncn12 [Example 340] . Is its IC50 below 40 nM?
**Result** Yes

**Query** A record lists COc1cccc(F)c1CNc1ccc(-c2ccc(S(C)(=O)=O)nc2C)c2nncn12 [Example 185] . Is its IC50 below 40 nM?
**Result** Yes

**Query** A record lists COc1cccc(F)c1CNc1ccc(-c2cnccn2)c2nncn12 [Example 325] . Is its IC50 below 40 nM?
**Result** Yes

**Query** A record lists COc1cccc(F)c1CNc1ccc(-c2ccc(F)nc2C)c2nncn12 [Example 222] . Is its IC50 below 40 nM?
**Result** Yes

**Query** A record lists COc1cc(F)cc(F)c1CNc1ccc(-c2cnc(C)cc2C(F)F)c2nncn12 [Example 317] . Is its IC50 below 40 nM?
**Result** Yes

**Query** A record lists COc1cccc(F)c1CNc1ccc(-c2cnn(C3CCNCC3)c2)c2nncn12 [Example 225] . Is its IC50 below 40 nM?
**Result** Yes

**Query** A record lists Cc1cccc(F)c1CNc1ccc(-c2cccnc2C)c2nncn12 [Example 331] . Is its IC50 below 40 nM?
**Result** No

**Query** A record lists COc1cccc(F)c1CNc1ccc(-c2cccnc2CC#N)c2nncn12 [Example 341] . Is its IC50 below 40 nM?
**Result** Yes

**Query** A record lists COc1cccc(F)c1CNc1ccc(-c2cnc(C3CC3)nc2C)c2nncn12 [Example 284] . Is its IC50 below 40 nM?
**Result** Yes

**Query** A record lists COc1cccc(F)c1CNc1ccc(-c2ccnc(C(F)F)c2C)c2nncn12 [Example 277] . Is its IC50 below 40 nM?
**Result** Yes

**Query** A record lists COc1cccc(F)c1CNc1ccc(-c2cnn(C3CC3)c2)c2nncn12 [Example 210] . Is its IC50 below 40 nM?
**Result** No

**Query** A record lists COc1cccc(F)c1CNc1ccc(-c2ccccc2Cl)c2nncn12 [Example 192] . Is its IC50 below 40 nM?
**Result** No

**Query** A record lists COc1ccc(F)c(F)c1CNc1ccc(-c2cccnc2)c2nncn12 [Example 242] . Is its IC50 below 40 nM?
**Result** No

**Query** A record lists COc1ccc(F)c(CNc2ccc(-c3cccnc3C)c3nncn23)c1 [Example 291] . Is its IC50 below 40 nM?
**Result** No

**Query** A record lists COc1c(F)ccc(F)c1CNc1ccc(-c2ccc(S(C)(=O)=O)nc2C)c2nncn12 [Example 334] . Is its IC50 below 40 nM?
**Result** Yes

**Query** A record lists COc1cccc(F)c1CNc1ccc(-c2ccc(C(=O)N(C)C)cc2F)c2nncn12 [Example 178] . Is its IC50 below 40 nM?
**Result** Yes

**Query** A record lists COc1cccc(F)c1CNc1ccc(-c2cn(C(C)C)nc2C(F)(F)F)c2nncn12 [Example 255] . Is its IC50 below 40 nM?
**Result** No

**Query** A record lists COc1cccc(F)c1CNc1ccc(-c2ccnn2C(C)C)c2nncn12 [Example 232] . Is its IC50 below 40 nM?
**Result** No

**Query** A record lists COc1cc(F)cc(F)c1CNc1ccc(-c2ccc(C(=O)N(C)C)cc2C)c2nncn12 [Example 295] . Is its IC50 below 40 nM?
**Result** Yes

**Query** A record lists COc1cccc(F)c1CNc1ccc(-c2ccc(C#N)cc2C)c2nncn12 [Example 209] . Is its IC50 below 40 nM?
**Result** No

**Query** A record lists COc1c(F)ccc(F)c1CNc1ccc(-c2cccnc2C)c2nncn12 [Example 327] . Is its IC50 below 40 nM?
**Result** No

**Query** A record lists COc1cccc(F)c1CNc1ccc(-c2cccnc2OC)c2nncn12 [Example 176] . Is its IC50 below 40 nM?
**Result** Yes

**Query** A record lists COc1cccc(F)c1CNc1ccc(-c2cc(F)ccc2C)c2nncn12 [Example 223] . Is its IC50 below 40 nM?
**Result** Yes

**Query** A record lists COc1cc(F)cc(F)c1CNc1ccc(-c2cnc(OC3CC3)nc2C)c2nncn12 [Example 344] . Is its IC50 below 40 nM?
**Result** Yes

**Query** A record lists COc1cccc(F)c1CNc1ccc(-c2cc(C)ncc2C(F)F)c2nncn12 [Example 337] . Is its IC50 below 40 nM?
**Result** Yes

**Query** A record lists COc1cccc(F)c1CNc1ccc(-c2cnc(N(C)C)nc2C)c2nncn12 [Example 260] . Is its IC50 below 40 nM?
**Result** Yes

**Query** A record lists COc1cccc(F)c1CNc1ccc(-c2ccccc2CO)c2nncn12 [Example 238] . Is its IC50 below 40 nM?
**Result** No

**Query** A record lists COc1cccc(F)c1CNc1ccc(-c2cccnc2C(F)F)c2nncn12 [Example 265] . Is its IC50 below 40 nM?
**Result** Yes
